- System Tested: Bifunctional 3'-5' exonuclease/ATP-dependent helicase WRN [480-1251] (UniProt Q14191)
- Construct: 480-1251
- Sequence (Q14191 480-1251): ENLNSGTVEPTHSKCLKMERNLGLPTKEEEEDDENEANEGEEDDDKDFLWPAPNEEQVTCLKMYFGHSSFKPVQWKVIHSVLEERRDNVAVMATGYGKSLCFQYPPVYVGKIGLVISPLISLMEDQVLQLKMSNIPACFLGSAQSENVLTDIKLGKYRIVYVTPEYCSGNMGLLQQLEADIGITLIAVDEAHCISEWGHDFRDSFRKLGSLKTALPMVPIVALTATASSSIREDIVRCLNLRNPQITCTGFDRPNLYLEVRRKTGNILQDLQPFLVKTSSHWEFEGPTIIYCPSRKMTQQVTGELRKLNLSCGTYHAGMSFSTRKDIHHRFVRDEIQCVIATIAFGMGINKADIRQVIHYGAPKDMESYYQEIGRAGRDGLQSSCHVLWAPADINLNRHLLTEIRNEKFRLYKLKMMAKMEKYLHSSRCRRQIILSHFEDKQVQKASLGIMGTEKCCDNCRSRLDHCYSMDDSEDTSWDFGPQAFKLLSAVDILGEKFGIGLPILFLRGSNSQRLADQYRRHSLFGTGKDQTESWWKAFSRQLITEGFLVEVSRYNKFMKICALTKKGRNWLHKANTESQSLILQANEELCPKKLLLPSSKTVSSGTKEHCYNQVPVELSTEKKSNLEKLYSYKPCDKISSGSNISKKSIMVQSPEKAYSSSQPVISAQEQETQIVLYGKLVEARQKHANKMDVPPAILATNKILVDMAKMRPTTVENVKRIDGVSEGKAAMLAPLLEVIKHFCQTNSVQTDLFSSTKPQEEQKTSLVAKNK
- Procedure Text: Biochemical Activity Assays
Quick reference for IC50 among some molecules
Number only, in nM; omit the unit.

Some entries whose results are on file:
Retrieve IC50 on Bifunctional 3'-5' exonuclease/ATP-dependent helicase WRN [480-1251] (UniProt Q14191); query CCc1c(N2CCN(C(=O)c3ncnc(C)c3O)CC2)c(=O)n2nc(-c3ccc4c(c3)CC(C)O4)nc2n1CC(=O)Nc1ccc(C(F)(F)F)cc1Cl (stereo not given) [WO2025049746, Example 168] 35

Specify the recorded IC50 for CCc1c(N2CCN(C(=O)c3ncnc(C)c3O)CC2)c(=O)n2nc(-c3cccc4oc(C)nc34)nc2n1CC(=O)Nc1ccc(C(F)(F)F)cc1Cl [WO2025049746, Example 155] , system: Bifunctional 3'-5' exonuclease/ATP-dependent helicase WRN [480-1251] (UniProt Q14191). 35

Write IC50 of CCc1c(N2CCN(C(=O)c3ncnc(C)c3O)CC2)c(=O)n2nc(-c3ccc4c(c3F)COC4(C)C)nc2n1CC(=O)Nc1ccc(C(F)(F)F)cc1Cl [WO2025049746, Example 216] ; system used: Bifunctional 3'-5' exonuclease/ATP-dependent helicase WRN [480-1251] (UniProt Q14191) 37

Give Bifunctional 3'-5' exonuclease/ATP-dependent helicase WRN [480-1251] (UniProt Q14191) IC50 for the following molecule: CCc1c(N2CCN(C(=O)c3ncnc(C)c3O)CC2)c(=O)n2nc(-c3ccc4c(c3)CS(=O)(=O)N4C)nc2n1CC(=O)Nc1ccc(C(F)(F)F)cc1Cl [WO2025049746, Example 279] 29

Moving on to the next molecule.
System Bifunctional 3'-5' exonuclease/ATP-dependent helicase WRN [480-1251] (UniProt Q14191). Read-out IC50. Item CCc1c(N2CCN(C(=O)c3ncnc(C)c3O)CC2)c(=O)n2nc(-c3cccc4c3CCCO4)nc2n1CC(=O)Nc1ccc(C(F)(F)F)cc1Cl [WO2025049746, Example 159] . Report value. 82

----------
- System Tested: Bifunctional 3'-5' exonuclease/ATP-dependent helicase WRN (Homo sapiens)
- Sequence (Q14191 whole entry): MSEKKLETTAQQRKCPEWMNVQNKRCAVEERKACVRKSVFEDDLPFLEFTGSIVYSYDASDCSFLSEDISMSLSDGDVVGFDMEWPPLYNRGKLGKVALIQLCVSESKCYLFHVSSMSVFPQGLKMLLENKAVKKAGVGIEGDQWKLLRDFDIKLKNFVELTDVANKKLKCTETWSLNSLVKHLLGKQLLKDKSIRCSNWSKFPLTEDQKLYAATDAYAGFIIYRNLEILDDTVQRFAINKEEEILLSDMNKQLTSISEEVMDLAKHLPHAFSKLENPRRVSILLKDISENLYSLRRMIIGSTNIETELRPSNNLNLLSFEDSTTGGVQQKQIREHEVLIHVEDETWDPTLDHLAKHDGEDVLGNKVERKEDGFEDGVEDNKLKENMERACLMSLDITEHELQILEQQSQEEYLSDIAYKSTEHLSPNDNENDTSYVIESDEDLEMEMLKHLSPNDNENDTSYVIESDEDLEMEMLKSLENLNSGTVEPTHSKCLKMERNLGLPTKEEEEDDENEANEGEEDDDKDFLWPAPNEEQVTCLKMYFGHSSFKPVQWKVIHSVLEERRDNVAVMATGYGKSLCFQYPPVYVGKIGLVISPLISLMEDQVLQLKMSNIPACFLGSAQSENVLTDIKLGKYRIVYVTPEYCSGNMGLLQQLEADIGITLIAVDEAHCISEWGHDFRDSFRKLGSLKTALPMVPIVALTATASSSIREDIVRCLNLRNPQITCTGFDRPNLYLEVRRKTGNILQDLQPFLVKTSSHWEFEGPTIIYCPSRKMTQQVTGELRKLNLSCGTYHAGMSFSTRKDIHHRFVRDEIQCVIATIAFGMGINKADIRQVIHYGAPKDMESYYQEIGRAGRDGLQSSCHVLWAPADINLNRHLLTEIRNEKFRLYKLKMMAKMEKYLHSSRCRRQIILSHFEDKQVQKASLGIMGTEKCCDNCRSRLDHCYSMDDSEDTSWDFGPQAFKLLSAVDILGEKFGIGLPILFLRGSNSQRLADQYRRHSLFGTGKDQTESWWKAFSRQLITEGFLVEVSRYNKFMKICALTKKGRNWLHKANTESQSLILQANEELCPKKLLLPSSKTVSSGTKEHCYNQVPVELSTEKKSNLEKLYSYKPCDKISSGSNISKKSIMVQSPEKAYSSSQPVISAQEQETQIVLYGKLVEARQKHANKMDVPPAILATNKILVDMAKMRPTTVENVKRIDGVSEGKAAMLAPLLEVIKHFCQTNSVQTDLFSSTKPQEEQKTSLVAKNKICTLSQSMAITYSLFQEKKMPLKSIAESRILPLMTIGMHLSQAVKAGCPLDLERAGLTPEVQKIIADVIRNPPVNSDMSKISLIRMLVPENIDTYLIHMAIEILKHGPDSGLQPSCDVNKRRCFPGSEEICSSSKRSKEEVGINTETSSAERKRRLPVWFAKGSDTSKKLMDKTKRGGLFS
- Procedure Text: ADP-Glo Kinase Assay
Property Measured: IC50 (nM)
Number only, in nM; omit the unit.

# count of solved cases: 2
Dear colleague, please send me the reported IC50 for `CCc1c(N2CCN(C(=O)c3nc4c(cc3O)CCOC4)CC2)c(=O)n2nc(-c3ccc4c(c3)COC4(C)C)nc2n1CC(=O)Nc1ccc(C(F)(F)F)cc1Cl` when you can. 70.5

Given CCc1c(N2CCN(C(=O)c3ncnc(C)c3O)CC2)c(=O)n2nc(-c3ccc([S+](C)[O-])cc3)nc2n1CC(=O)Nc1ccc(C(F)(F)F)cc1Cl (stereo not drawn) , respond with its IC50. 28

More entries:
Using the record for `CCc1c(N2CCN(C(=O)c3ncnc(C)c3O)CC2)c(=O)n2nc(-c3ccc4c(c3)COC4)nc2n1CC(=O)Nc1c(Cl)cc(C(F)(F)F)c2c1OCC2` , state its measured IC50. 54

----------
# maps each entry to its pIC50
- System Tested: Bifunctional 3'-5' exonuclease/ATP-dependent helicase WRN [480-1251] (UniProt Q14191)
- Construct: 480-1251
- Procedure Text: Biochemical Activity Assays
Scale explanation: pIC50 corresponds to minus log10 of a concentration expressed in moles per litre.

The examples below pair each entry with its known result.
# return recorded pIC50 for input CCc1c(N2CCN(C(=O)c3ncnc(C)c3O)CC2)c(=O)n2nc(-c3cc4n(n3)CCOC4)nc2n1CC(=O)Nc1ccc(C(F)(F)F)cc1Cl [WO2025049746, Example 154] 7.30

Given the compound CCc1c(N2CCN(C(=O)c3ncnc(C)c3O)CC2)c(=O)n2nc(-c3cc(C)c4c(c3)CCO4)nc2n1CC(=O)Nc1ccc(C(F)(F)F)cc1Cl [WO2025049746, Example 171] , write its reported pIC50. 7.38

Please list pIC50 recorded for the compound CCc1c(N2CCN(C(=O)c3ncnc(C)c3O)CC2)c(=O)n2nc(-c3ccc4c(c3)CC(C)(C)O4)nc2n1CC(=O)Nc1ccc(C(F)(F)F)cc1Cl [WO2025049746, Example 194] 7.17

Continuing:
Provide only the value of recorded pIC50 for CCc1c(N2CCN(C(=O)c3ncnc(C)c3O)CC2)c(=O)n2nc(C3=CCOCC3)nc2n1CC(=O)Nc1ccc(C(F)(F)F)c2cccnc12 [WO2025049746, Example 360] 5.70

Fill in pIC50 for record CCc1c(N2CCN(C(C)=O)CC2)c(=O)n2nc(-c3ncc(O)cn3)nc2n1CC(=O)Nc1ccc(C(F)(F)F)cc1Cl [WO2025049746, Example 434] 6.99

Return value of pIC50 for input CCc1c(N2CCN(C(=O)c3ncnc(C)c3O)CC2)c(=O)n2nc(-c3ccc4nscc4c3)nc2n1CC(=O)Nc1ccc(C(F)(F)F)cc1Cl [WO2025049746, Example 266] , no commentary. 7.66

Please supply the value of reported pIC50 for the item CCc1c(N2CCN(C(=O)c3ncnc(C)c3O)CC2)c(=O)n2nc(-c3cc4c(cc3F)[C@H](OC)CC4)nc2n1CC(=O)Nc1ccc(C(F)(F)F)cc1Cl [WO2025049746, Example 245] 7.55

# return recorded pIC50 for entry CCc1c(N2CCN(C(=O)c3ncnc(C)c3O)CC2)c(=O)n2nc(-c3ccn4nc(OC(F)F)cc4c3F)nc2n1CC(=O)Nc1ccc(C(F)(F)F)cc1Cl [WO2025049746, Example 334] 7.49

Complete the entry with pIC50 for CCc1c(N2CCN(C(=O)c3ncnc(C)c3O)CC2)c(=O)n2nc(-c3ccc4ccnn4c3)nc2n1CC(=O)Nc1ccc(C(F)(F)F)cc1Cl [WO2025049746, Example 253] 7.62

Please indicate pIC50 recorded for CCc1c(N2CCN(C(=O)c3ncnc(C)c3O)CC2)c(=O)n2nc(-c3ccc4c(c3)[C@@H](C)OC4)nc2n1CC(=O)Nc1ccc(C(F)(F)F)cc1Cl [WO2025049746, Example 190] 7.52

Indicate the recorded pIC50 value for this compound: CCc1c(N2CCN(C(=O)c3ncnc(C)c3O)CC2)c(=O)n2nc(-c3ccc4c(c3)CCO4)nc2n1CC(=O)Nc1ccc(Cl)c(OC(F)F)c1Cl [WO2025049746, Example 405] 7.46
